Where these numbers come from: patent US11945881B2

tested on: CD8+ T cells; assay: exogenous autologous normal donor restimulation assay, TNFα/IFNγ double positive CD8+ T cells by flow cytometry; format: cell-based, human; conditions: maximum CD8+ T-cell response (TNFα and IFNγ), donor independent; peptide pool 10 μg/mL; healthy donors
Measured parameter: Fold change (CD8+) vs. DMSO (fold)
One number for each entry, in fold.

QUERY: Entry under review: PGHGAICREEV [AS62, neoantigen, alternative splicing of IMPG2] . Reported Fold change (CD8+) vs. DMSO?
RESULT: 28.06

QUERY: Recorded Fold change (CD8+) vs. DMSO of ALTVVPPGLRLDRVLLHLW [FUS27, neoantigen, gene fusion C17orf99->SYNGR2] , please.
RESULT: 19.77

QUERY: Quick one: Fold change (CD8+) vs. DMSO of WSQDLQEGFSAPSRISAWFGPP [AS17, neoantigen, alternative splicing of KRT8] ?
RESULT: 169.53

QUERY: Could you tell me which Fold change (CD8+) vs. DMSO is on file for PSLSTRLTSKDPQPLQSHYWGLIGNDPFLRSKKRVN [AS4, neoantigen, alternative splicing of MUC16] ?
RESULT: 7.55

For each of the sequences below, note its Fold change (CD8+) vs. DMSO.
1. AMAKKQRPDTAFWVQH [AS12, neoantigen, alternative splicing of IQGAP3]
2. LRSLAGTYGRSPSPATRRKRSWSC [FUS25, neoantigen, gene fusion CLCF1->POLD4]
3. NANSRLPEACEK [AS100, neoantigen, alternative splicing of FRYL]
4. FLIVAEIVTLLIAFI [FUS20, neoantigen, gene fusion CMTM8->CMTM7]
5. FQETWLAEDAAAGALSPCTIPTPPQPPLLSLPTSSGTRQ [AS97, neoantigen, alternative splicing of ETV4]
6. NYGNLFSLAGSLHFTA [AS89, neoantigen, alternative splicing of ZNF727]

RESULT:
6.05
2.79
63.36
28.23
433.66
142.04

Lab note: each sequence below needs its Fold change (CD8+) vs. DMSO filled in.
1. GGLTLGARNTLTHGSPGPSQATVAVAPLSGRAAVSAAGGCVFLLLPACVPRRCHWIP [FUS16, neoantigen, gene fusion NDUFA11->FUT5]
2. STLNITLSFDSHHGHHPVSVI [FUS6, neoantigen, gene fusion PKHD1L1->EBAG9]
3. NIEDVATEDGRHGGCHHGPGR [AS71, neoantigen, alternative splicing of SLC6A2]
4. AAEQAGCMQCLI [FUS8, neoantigen, gene fusion TYSND1->AIFM2]
5. LRLRPNRRRASSAQTAPTSSLSLWSGASRRRRPAGGHMWCTAGRPSSRSGQNLTGTCTMKPLAWETFPTCWAWWGTSWATQSGSGGMPSQAATASRCCWWWTTRWFASMARSMCRTMSSPS [AS1]
6. GTMEVKSKKKQTTVPLVQTR [AS67, neoantigen, alternative splicing of PARD6B]

RESULT:
261.6
4.47
11.78
6.27
29.8
6.36

Batch of 4 sequences: report Fold change (CD8+) vs. DMSO for each.
1. APSCGVSRAICDRGCH [AS79, neoantigen, alternative splicing of FBN3]
2. TKKRKQSELQQP [AS95, neoantigen, alternative splicing of DMXL2]
3. SISLTDDEAELPLLDL [AS77, neoantigen, alternative splicing of EP400]
4. VEDEEKKEAGTHFIHLTGTTVSAGVPEEMPATTLRREVF [AS91, neoantigen, alternative splicing of ACIN1]

RESULT:
[2.88, 2.54, 6.59, 46.44]

Please report Fold change (CD8+) vs. DMSO for every entry that follows.
1. KLCSRQRPDCQPVDSRHGPILSIQHLISALHTGDG [AS123, neoantigen, alternative splicing of VWA2]
2. RRHGEVQGLLEREKTARGNPSG [AS72, neoantigen, alternative splicing of SMC1B]
3. MHRKLQARSPSLCTGHPPQAA [AS75, neoantigen, alternative splicing of TSPAN10]
4. VEDEEKKEPDGAQRHLVDIGGSHQTSHAEKFLFLLCPPVV [AS90, neoantigen, alternative splicing of ACIN1]
5. NLQLLTQGYSGIWRYP [AS118, neoantigen, alternative splicing of SAMD12]
6. LLFFVAGEVLRHEEFE [FUS15, neoantigen, gene fusion NXN->GLOD4]
7. VQKLKNARSLNLEDQI [AS83, neoantigen, alternative splicing of NUF2]
8. LASGVPPPGLPWGPGPHLG [AS60, neoantigen, alternative splicing of HMCN2]

RESULT:
1. 115.04
2. 8.6
3. 2.64
4. 28.95
5. 2.42
6. 8.84
7. 10.83
8. 265.02
